B1: Membrane-associated guanylate kinase, WW and PDZ domain-containing protein 1, residues 352 to 401; numbered along this chain, Q96QZ7 (parent)
chain: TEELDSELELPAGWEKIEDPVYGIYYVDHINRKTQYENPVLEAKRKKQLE

Variants of: B1
test protocol: abundance fitness (aPCA) (normalised: wild type 0, dead -1); higher = more abundant; growth selection in yeast, the domain comes from the species named
test parameters: Homo sapiens
abundance fitness overview
// print number alone

[[record]]
mutation = "K16H"
assay_endpoint = "abundance fitness"
measurement = -1.03


Asked: Given I30C , state its recorded abundance fitness.
Given back: -0.322

Asked: Note, next up: E9H
Given back: -0.095

Asked: Note, next up: P39R
Given back: -0.648

Asked: Note, next up: S6L
Given back: -0.073

Asked: Note, next up: E37C
Given back: -0.292
